System: HepG2
Experiment: GSK_TCMDC: Percent inhibition of human HepG2 cell line. Test compounds present at 10uM.
Assay type: functional
Assignment: determine reported Inhibition for the given compounds.
One number for each entry, in %.

>  <compound>
CCOc1ccc(-n2nc3c(Cl)nnc(-c4ccccc4)c3c2-c2ccccc2)cc1

>  <target>
HepG2

>  <measurementLabel>
Inhibition

>  <quantitativeResult>
0

$$$$
>  <compound>
Cc1cccc2nc(-c3cccc(-c4ccc(NC(=O)C(C)CN5CCOCC5)cc4)c3)[nH]c12 (stereo not given)

>  <target>
HepG2

>  <measurementLabel>
Inhibition

>  <quantitativeResult>
7

$$$$
>  <compound>
Cc1cccc2nc(-c3ccc(-c4ccc(CN5CCC(CO)CC5)cc4)s3)[nH]c12.O=C(O)C(F)(F)F

>  <target>
HepG2

>  <measurementLabel>
Inhibition

>  <quantitativeResult>
15

$$$$

Could you tell me Inhibition for each of these compounds? They are listed below.
1. Cc1nnsc1C(=O)Nc1ccc(-c2cccc(-c3nc4cccc(C)c4[nH]3)c2)cc1
2. O=C(Nc1ccc(C(F)(F)F)cc1)c1ccc(S(=O)(=O)NC2CCN(Cc3ccccc3)C2)cc1.O=C(O)C(F)(F)F (stereo not given)
3. NC(=O)c1ccccc1OCC(=O)Nc1ccc(-c2cccc(-c3nc4cc(C(F)(F)F)ccc4[nH]3)c2)cc1
4. Cc1nc2ccc(-c3ccc(OC(F)(F)F)cc3)cc2c(O)c1C#N
5. CCc1ccc(NC(=O)c2ccc(CN3CCCN(Cc4cccc(C)c4)CC3)cc2)cc1.O=C(O)C(F)(F)F

**A:**
[23, 42, 51, 0, 53]

Please give Inhibition, item by item, for the list that follows.
1. COc1ccc2nccc([C@@H](O)CN3CCC(NCc4cc5cc(OC(F)(F)F)ccc5[nH]4)CC3)c2c1.O=C(O)C(=O)O
2. COC(=O)C(NC(=O)c1ccc(-c2ccc(-c3nc4ccccc4[nH]3)s2)cc1)c1ccc(O)cc1 (stereo not given)
3. O=C(Nc1ccc(Oc2ccccc2)cc1)N[C@@H](Cc1ccc(O)cc1)C(=O)NC1CCN(Cc2ccc(O)c([N+](=O)[O-])c2)C1 (stereo not given in full)
4. Cl.N#Cc1ccc2c(c1)CCN(CCC1CCC(NC(=O)/C=C/c3ccc4[nH]ccc4c3)CC1)CC2 (stereo not given)
5. Cc1noc(-c2ccccc2)c1NC(=O)N1CCN(CCCCCCNC(=O)/C=C/c2ccc(Cl)c(Cl)c2)CC1

**A:**
[49, 99, 0, 2, 6]

Count: 8. Required value per item: Inhibition.
1. Cl.O=S(=O)(c1ccc(OCc2ccc(Cl)cc2)cc1)c1cc2c(cc1OCc1ccccc1)CCN(CC1CC1)CC2
2. Cc1cc(CN2CC[C@H](NC(=O)c3ccc(Cl)c(Cl)c3)C2)ccc1OCCCN(C)C.O=C(O)C(F)(F)F
3. O=C(Nc1cccc(C(F)(F)F)c1)Nc1ccc(Cl)c(Cl)c1
4. CCN(CC)CCCNc1ncc2c(-c3ccc(NC(=O)Nc4cc(C(F)(F)F)ccc4F)cc3)nn(C)c2n1.O=C(O)C(F)(F)F
5. COc1ccc(-c2nc(NC(=O)Cc3ccc(OC)c(OC)c3)sc2C)cc1
6. Nc1ccc2[nH]cc(C3CCN(CCC4CCN(C(=O)/C=C/c5ccc(Cl)c(Cl)c5)CC4)CC3)c2n1
7. O=C(Nc1ccc(Cl)cc1)c1cc(Cl)ccc1NC(=O)C1(c2ccc(Cl)cc2)CCCC1
8. Cl.O=C(NCc1ccc(C(=O)N2CCC(N3CCCCC3)CC2)cc1)c1cc(-c2cccc(C(F)(F)F)c2)ccc1O

**A:**
1: 19; 2: 41; 3: 5; 4: 81; 5: 33; 6: 27; 7: 13; 8: 0

State the recorded Inhibition for every item in the following list.
1. O=c1sn(-c2csc3ccccc23)c2ccccc12
2. O[C@H]1[C@H](OCc2ccc(-c3ccccc3)cc2)CC[C@@H]1N1CCCCC1
3. CCOc1cc(C(=O)N[C@@H](Cc2ccccc2)[C@H](O)CNCc2cccc(OC)c2)cc(N2CCCCS2(=O)=O)c1.Cl
4. Nc1ncnc2cc(-c3cccc(NC(=O)Nc4ccccc4)c3)sc12

**A:**
[14, 9, 3, 4]
